Test protocol: Volume of distribution at steady state in rat
Format: ADME
Setup conditions: in vivo, read-out: Vdss
Value type: Vd (L/kg)
Write the value in L/kg as a bare number.

Solved entries (count: 3):
> print(dat)
                        structure.as.smiles  meas.value
1  CC(C)[C@@H](O)CC[C@@H](C)[C@H]1CC[C@H]2[C@@H]3CC=C4C[C@@H](O)CC[C@]4(C)[C@H]3CC[C@]12C         2.5
2  CC(C)[C@H](O)CC[C@@H](C)[C@H]1CC[C@H]2[C@@H]3CC=C4C[C@@](C)(O)CC[C@]4(C)[C@H]3CC[C@]12C         3.1
3  C[C@H](CC[C@@H](O)C1CC1)[C@H]1CC[C@H]2[C@@H]3CC=C4C[C@@](C)(O)CC[C@]4(C)[C@H]3CC[C@]12C         4.4

Provide one value: measured Vd of CC(C)[C@@H](O)CC[C@@H](C)[C@H]1CC[C@H]2[C@@H]3CC=C4C[C@@](C)(O)CC[C@]4(C)[C@H]3CC[C@]12C 3.7

Provide one value: measured Vd of C[C@H](CC[C@@H](O)C1CCC1)[C@H]1CC[C@H]2[C@@H]3CC=C4C[C@@](C)(O)CC[C@]4(C)[C@H]3CC[C@]12C 2.9

Provide one value: measured Vd of C[C@H](CCCC(C)(C)O)[C@H]1CC[C@H]2[C@@H]3CC=C4C[C@@H](O)CC[C@]4(C)[C@H]3CC[C@]12C 1.2

Provide one value: measured Vd of C[C@H](CCC(C)(C)O)[C@H]1CC[C@H]2[C@@H]3CC=C4C[C@@](C)(O)CC[C@]4(C)[C@H]3CC[C@]12C 0.65

Provide one value: measured Vd of C[C@H](CC[C@@H](O)C(F)(F)F)[C@H]1CC[C@H]2[C@@H]3CC=C4C[C@@](C)(O)CC[C@]4(C)[C@H]3CC[C@]12C 2.8

###

Subject of test: Glutamate NMDA receptor; GRIN1/GRIN2A (Homo sapiens, UniProt Q05586+Q12879)
Test protocol: Positive allosteric modulation of recombinant human GluN1/GluN2A receptor expressed in Xenopus laevis oocytes assessed as increase in glycine/L-glutamate-induced channel current at -80 mV holding potential by two-electrode voltage clamp method
Format: cell-based
Value type: EC50 (nM)
Write the value in nM as a bare number.

Provide one value: measured EC50 of CC(C)[C@@H](O)CC[C@@H](C)[C@H]1CC[C@H]2[C@@H]3CC=C4C[C@@H](O)CC[C@]4(C)[C@H]3CC[C@]12C 300

###

Test protocol: Drug uptake in 20 to 21 months old Wistar Han rat model of aged-induced memory deficit brain at 1 mg/kg, ip measured after 4 hrs
Type: ADME, organism-based
Setup conditions: read-out: Drug uptake
Value type: concentration at 4 h (nM)
Write the value in nM as a bare number.

Provide one value: measured concentration at 4 h of C[C@H](CCC(C)(C)O)[C@H]1CC[C@H]2[C@@H]3CC=C4C[C@@](C)(O)CC[C@]4(C)[C@H]3CC[C@]12C 400

###

Subject of test: Glutamate NMDA receptor; GRIN1/GRIN2A (Homo sapiens, UniProt Q05586+Q12879)
Test protocol: Positive allosteric modulation of recombinant human GluN1/GluN2A receptor stably expressed in HEK293 cells assessed as increase in glycine/L-glutamate-induced channel current at -70 mV holding potential by IonWork […] method relative to control
Type: cell-based
Value type: Emax (%)
Write the value in % as a bare number.

Solved entries (count: 4):
> print(dat)
                                   compound  value.type  readout.unit  meas.value
1  CC(C)[C@@H](O)CC[C@@H](C)[C@H]1CC[C@H]2[C@@H]3CC=C4C[C@@H](O)CC[C@]4(C)[C@H]3CC[C@]12C        Emax             %         210
2  C[C@H](CC[C@H](O)C1CC1)[C@H]1CC[C@H]2[C@@H]3CC=C4C[C@@](C)(O)CC[C@]4(C)[C@H]3CC[C@]12C        Emax             %         230
3  CC(O)CC[C@@H](C)[C@H]1CC[C@H]2[C@@H]3CC=C4C[C@@H](O)CC[C@]4(C)[C@H]3CC[C@]12C (stereo partly drawn)        Emax             %         150
4  C[C@H](CC[C@H](O)C1CCC1)[C@H]1CC[C@H]2[C@@H]3CC=C4C[C@@](C)(O)CC[C@]4(C)[C@H]3CC[C@]12C        Emax             %         300

Provide one value: measured Emax of CC(C)[C@H](O)CC[C@@H](C)[C@H]1CC[C@H]2[C@@H]3CC=C4C[C@@H](O)CC[C@]4(C)[C@H]3CC[C@]12C 220

Provide one value: measured Emax of C[C@H](CC[C@H](O)C(F)(F)F)[C@H]1CC[C@H]2[C@@H]3CC=C4C[C@@](C)(O)CC[C@]4(C)[C@H]3CC[C@]12C 260

Provide one value: measured Emax of CC(C)[C@H](O)CC[C@@H](C)[C@H]1CC[C@H]2[C@@H]3CC=C4C[C@@](C)(O)CC[C@]4(C)[C@H]3CC[C@]12C 200

Values were extracted from ChEMBL document CHEMBL4406822.
